// data source = patent US20230312601A1

- Tested on: OCI-LY3 IL6
- Experiment: MALT-1 Cell IL-6 AlphaLISA Assay
- Type: cell-based
- Condition Description: Homo sapiens; OCI-LY3 cells, 48 hours incubation; read-out: OCI-LY3 IL6 48 hour Inhibition EC50
Metric Name: EC50 (nM)

CO[C@@H](C)c1c(Nc2ccc([C@H](N(C)C(=O)C3CCN(C(=O)C(C)(C)O)CC3)C(F)(F)F)cc2)cnc2sc(C)nc12: 210

1. CO[C@H](c1c(Nc2ccc([C@@H](C(F)F)N(C)C(=O)C3CCS(=O)(=O)CC3)cc2)cnc2sc(C)nc12)C(F)F
2. CO[C@@H](c1c(Nc2ccc([C@@H](C(F)F)N(C)C(=O)C3CCS(=O)(=O)CC3)cc2)cnc2sc(C)nc12)C(F)F
3. CCN(C(=O)C1CCS(=O)(=O)CC1)[C@@H](c1ccc(Nc2cnc3sc(C)nc3c2[C@H](C)OC)cc1)C(F)(F)F
# input Rank order required: EC50, descending. Field: ranking. Enter the labels in the order requested.
# output 2, 1, 3
(2: 420 nM, 1: 210 nM, 3: 140 nM)
